molecular target: NAD-dependent deacetylase Sirtuin 1 (human); assay: primary screen, delta tm; design: single well (n = 1, as 'the same TSA'); conditions: 10 µM
In all, about 3,200 compounds were measured (“TSA(with NAD+) / Primary screening (TSA) / delta Tm (K)”: median about -0.04, highest 2% from about 0.37 on). What follows is part of a selection rich in the highest values, with near analogues and random picks from the rest.
Hi, to clarify the labels: Fulfilled covers TSA(with NAD+) / Primary screening (TSA) / delta Tm (K) from -0.03 K upward, Not fulfilled covers anything below -0.03 K.

Look over these answered cases.
• CN(c1ccccc1)S(=O)(=O)c1cccc(NC(=O)CNc2cccc3ccccc23)c1 = Fulfilled
• Cc1ccc(C(=O)OCc2ccc(C(=O)Nc3ccccc3)cc2)cc1 = Not fulfilled
• CCN(CC(=O)Nc1ccc(OC)cc1)CC(=O)Nc1ccc(C(N)=O)cc1 = Not fulfilled
• O=C(COC(=O)c1cccc(NS(=O)(=O)/C=C/c2ccccc2)c1)NC12CC3CC(CC(C3)C1)C2 = Fulfilled
• NC(=O)C1CCN(c2nc(CN3CCCCC3)nc3sc4c(c23)CCC4)CC1 = Not fulfilled

q: API: above_or_equal(metric=TSA(with NAD+) / Primary screening (TSA) / delta Tm (K), cutoff=-0.03 K) for item O=C(Nc1ccc2c3c(cccc13)CC2)N1CCC(n2cncn2)CC1
a: Not fulfilled

q: Hi, just wondering whether COC(=O)c1ccc2[nH]c3c(c2c1)CN(S(C)(=O)=O)CC3 shows TSA(with NAD+) / Primary screening (TSA) / delta Tm (K) of -0.03 K or higher.
a: Fulfilled

q: Given the entry CN(c1ccccc1)S(=O)(=O)c1cccc(NC(=O)c2cc(Cl)nc3ccccc23)c1 , answer whether its TSA(with NAD+) / Primary screening (TSA) / delta Tm (K) meets or surpasses -0.03 K.
a: Fulfilled

q: Reported TSA(with NAD+) / Primary screening (TSA) / delta Tm (K) at or above -0.03 K? C/C(=N/N)c1ccc2c(c1)-c1ccccc1C2
a: Not fulfilled

q: Tell me whether TSA(with NAD+) / Primary screening (TSA) / delta Tm (K) is at least -0.03 K here: c1ccc(-c2[nH]c3ccccc3c2-c2ccccc2)cc1
a: Fulfilled

q: Item NC(=O)C1CCN(c2ncnc3sc4c(c23)CCC4)CC1 with TSA(with NAD+) / Primary screening (TSA) / delta Tm (K) of -0.03 K or above?
a: Not fulfilled

---

molecular target: NAD-dependent deacetylase Sirtuin 1 (human, UniProt Q96EB6); assay: primary screen, delta tm; design: single well (n = 1, as 'the same TSA'); details: 10 µM
Sequence (Q96EB6 2-747 limits assumed): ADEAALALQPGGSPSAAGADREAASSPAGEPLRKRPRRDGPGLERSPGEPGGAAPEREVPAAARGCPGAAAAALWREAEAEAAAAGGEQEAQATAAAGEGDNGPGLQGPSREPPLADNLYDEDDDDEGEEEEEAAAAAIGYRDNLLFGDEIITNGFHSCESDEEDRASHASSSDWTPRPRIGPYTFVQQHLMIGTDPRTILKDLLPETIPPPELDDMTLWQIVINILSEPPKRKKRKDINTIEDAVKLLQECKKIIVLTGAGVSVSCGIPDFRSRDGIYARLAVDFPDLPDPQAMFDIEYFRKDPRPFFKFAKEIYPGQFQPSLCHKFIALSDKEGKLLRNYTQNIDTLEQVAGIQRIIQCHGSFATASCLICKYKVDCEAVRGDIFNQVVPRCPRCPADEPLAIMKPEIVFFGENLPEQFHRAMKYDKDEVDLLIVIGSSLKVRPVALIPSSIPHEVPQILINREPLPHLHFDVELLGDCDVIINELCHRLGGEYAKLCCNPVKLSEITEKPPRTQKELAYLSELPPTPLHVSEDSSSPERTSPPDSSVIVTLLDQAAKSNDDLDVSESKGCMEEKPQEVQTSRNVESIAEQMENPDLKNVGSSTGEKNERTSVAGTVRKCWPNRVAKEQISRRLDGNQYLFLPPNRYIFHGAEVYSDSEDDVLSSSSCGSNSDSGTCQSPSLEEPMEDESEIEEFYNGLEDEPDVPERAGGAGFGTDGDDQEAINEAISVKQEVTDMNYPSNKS
Whole data set: some 3,200 compounds, median “TSA(with NAD+) / Primary screening (TSA) / delta Tm (K)” near -0.04, cut for the highest 2% near 0.37. The entries come from a sample that favours the highest values as a whole.
Each item that follows carries a reported TSA(with NAD+) / Primary screening (TSA) / delta Tm (K).
The figure you give is taken to be in K; do not add the unit.

Solved cases (8 shown):
- Cc1ccc(-c2nnc(SCC(=O)NC(=O)NC(C)C)n2N)cc1: -0.04
- Cc1nc(-c2ccccn2)[nH]c(=O)c1CC(=O)NCCc1cccc2cccnc12: 0.28
- COC(=O)c1ccccc1Nc1ccnc(Cl)n1: -0.11
- Cc1nc(-c2ccc(CCNC(=O)c3ccc(NC(N)=O)cc3)s2)cs1: 0.08
- COc1ccc(C(=O)NCCc2ccc(-c3csc(C)n3)s2)cc1: -0.09
- Cc1nc(-c2ccc(CCNC(=O)c3ccc(NC(=O)c4cccs4)cc3)s2)cs1: 0.58
- O=C1NC(=S)NC(=O)C1=Cc1cc2ccccc2[nH]c1=O: -0.09
- Cc1cc(C=C2C(=O)NC(=S)NC2=O)c(C)n1-c1ccc(F)cc1: -0.48

q: Write down the reported TSA(with NAD+) / Primary screening (TSA) / delta Tm (K) (system: NAD-dependent deacetylase Sirtuin 1 (human, UniProt Q96EB6)) of O=C(CN1CCN(Cc2cscn2)CC1)NC(c1ccccc1)C1CC1 (stereo not shown)
a: 0.03

q: Consider the molecule Cc1ccc(S(=O)(=O)N2CCCCC2)cc1NC(=O)COC(=O)c1ccccc1SCC(=O)N1CCCC1 tested on NAD-dependent deacetylase Sirtuin 1 (human, UniProt Q96EB6); state its TSA(with NAD+) / Primary screening (TSA) / delta Tm (K).
a: -0.01
